Measured values drawn from PubChem BioAssay for this set.

# assayInfo: reversal of MRP1-mediated doxorubicin resistance, pilot screen, H69AR cells, doxorubicin co-treatment (AID 601)
# assayContext: H69AR cells + 2 uM doxorubicin, CellTiter-Glo, 72 h; at 10 µM; hits give high values
readoutKind: differential viability (reversal) (%)
The figure you give is taken to be in %; do not add the unit.

Query string: Return reported differential viability (reversal). Input compound: Cc1ccccc1NC(=O)NCCCN1CCN(C2CCCCC2)CC1
Result string: 2.42

Query string: Return reported differential viability (reversal). Input compound: COc1cccc2cc(C(=O)C3=C(O)C(=O)N(CCCN4CCOCC4)C3c3ccncc3)oc12 (stereo not drawn)
Result string: -2.74

Query string: Return reported differential viability (reversal). Input compound: CCC(C)(C)NC(=O)C(c1ccco1)N(C(=O)Cn1nnc2ccccc21)c1ccc2c(c1)OCO2 (stereo not drawn)
Result string: 18.9

Query string: Return reported differential viability (reversal). Input compound: Cc1ccc(NC(=O)c2cc(S(=O)(=O)N3CCC4(CC3)OCCO4)ccc2F)cc1
Result string: 2.58

Query string: Return reported differential viability (reversal). Input compound: CCOC(=O)c1[nH]c2ccc(OC)cc2c1NC(=O)CCN1CCC(C)CC1
Result string: -0.37

Query string: Return reported differential viability (reversal). Input compound: Cn1c(SCC(=O)N2CCOCC2)nnc1-c1cccc(NC(=O)c2ccccc2F)c1
Result string: 11.4

Query string: Return reported differential viability (reversal). Input compound: COCCN(CC(=O)NC1CCCCC1)C(=O)CSc1nc2ccccc2o1
Result string: 4.13

Query string: Return reported differential viability (reversal). Input compound: O=C(c1cc2ccccc2oc1=O)N1CCSC1c1ccco1 (stereo not drawn)
Result string: 6.19
